Test system: 282377-053-R-J1-PDC complex spheroid viability;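 also: spheroids exposed to compounds for seven days; 100% = DMSO vehicle control viability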
Experiment: Anticancer human tumor 282377-053-R-J1-PDC patient-derived colon adenocarcinoma cell line growth inhibition [POLQ]
Conditions: second compound 0.316 µM; first compound 0.1 µM; stronger effect = lower value
Field: viability, T/C. Provide a value for each of the compounds that follow.
Give bare numbers, in %.

[[record]]
compound = "CC1COCCN1c1cc(C2(S(C)(=N)=O)CC2)nc(-c2ccnc3[nH]ccc23)n1 (centres undefined) + COC1C(OC(N)=O)C(O)C(Oc2ccc3c(O)c(NC(=O)c4ccc(O)c(CC=C(C)C)c4)c(=O)oc3c2C)OC1(C)C"
quantity = "viability, T/C"
number = 82.1


Go through the list and state viability, T/C for each entry.
1. Cn1ncnc1[C@H]1c2n[nH]c(=O)c3cc(F)cc(c23)N[C@@H]1c1ccc(F)cc1 + COC1C(OC(N)=O)C(O)C(Oc2ccc3c(O)c(NC(=O)c4ccc(O)c(CC=C(C)C)c4)c(=O)oc3c2C)OC1(C)C
2. C=CCn1c(=O)c2cnc(Nc3ccc(N4CCN(C)CC4)cc3)nc2n1-c1cccc(C(C)(C)O)n1 + COC1C(OC(N)=O)C(O)C(Oc2ccc3c(O)c(NC(=O)c4ccc(O)c(CC=C(C)C)c4)c(=O)oc3c2C)OC1(C)C

OUTPUT:
[132, 96.3]

INPUT: Tell me the measured viability, T/C of C=CC(=O)N1CCN(c2nc(=O)n(-c3c(C)ccnc3C(C)C)c3nc(-c4c(O)cccc4F)c(F)cc23)C(C)C1 (centres undefined) + COC1C(OC(N)=O)C(O)C(Oc2ccc3c(O)c(NC(=O)c4ccc(O)c(CC=C(C)C)c4)c(=O)oc3c2C)OC1(C)C , please.
OUTPUT: 124
